Target Or System: human OX40 with mouse CRD1 (human with mouse CRD1) (UniProt P43489)
Sequence (P43489 other isoform, or with tags, fused parts or gaps limits assumed): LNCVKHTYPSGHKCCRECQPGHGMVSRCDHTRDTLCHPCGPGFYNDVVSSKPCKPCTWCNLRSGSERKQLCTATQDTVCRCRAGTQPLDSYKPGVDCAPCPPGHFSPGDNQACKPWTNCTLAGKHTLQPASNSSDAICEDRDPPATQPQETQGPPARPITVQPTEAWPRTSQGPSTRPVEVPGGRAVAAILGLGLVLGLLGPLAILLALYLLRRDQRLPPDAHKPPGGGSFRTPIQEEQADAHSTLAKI
Test Summary: flow cytometry, ExpiCHO-S cells with human OX40 carrying mouse CRD1
Measured Attribute: EC50 (read off the curve) (µg/mL)
Expressed in µg/mL, but write only the number.

The measured EC50 (read off the curve) associated with IgG1-CD134-MEDI0562 (antibody, INN chains, looked up, V domains shown, IgG1) VH: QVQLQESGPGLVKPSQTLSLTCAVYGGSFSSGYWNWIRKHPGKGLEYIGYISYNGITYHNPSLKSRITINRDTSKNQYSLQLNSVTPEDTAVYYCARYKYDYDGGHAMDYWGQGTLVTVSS VL: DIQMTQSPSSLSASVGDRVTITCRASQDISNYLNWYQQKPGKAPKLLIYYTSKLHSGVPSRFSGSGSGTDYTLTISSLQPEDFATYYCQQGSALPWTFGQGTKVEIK reads 0.07

Value of EC50 (read off the curve) reported for the binder IgG1-CD134-GBR830 (antibody, INN chains, looked up, V domains shown, IgG1) VH: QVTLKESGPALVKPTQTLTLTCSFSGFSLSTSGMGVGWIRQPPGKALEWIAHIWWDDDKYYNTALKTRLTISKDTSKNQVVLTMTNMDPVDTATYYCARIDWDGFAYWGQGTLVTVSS VL: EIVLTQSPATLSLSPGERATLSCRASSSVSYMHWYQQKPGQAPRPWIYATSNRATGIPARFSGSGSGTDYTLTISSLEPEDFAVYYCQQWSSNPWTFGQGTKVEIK is 0.06

Please fill in: EC50 (read off the curve) reported for IgG1-CD134-ABBV368 (antibody, INN chains, looked up, V domains shown, IgG1) VH: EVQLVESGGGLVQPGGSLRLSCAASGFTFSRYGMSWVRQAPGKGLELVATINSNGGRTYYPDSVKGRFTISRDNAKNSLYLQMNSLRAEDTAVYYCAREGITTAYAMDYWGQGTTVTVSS VL: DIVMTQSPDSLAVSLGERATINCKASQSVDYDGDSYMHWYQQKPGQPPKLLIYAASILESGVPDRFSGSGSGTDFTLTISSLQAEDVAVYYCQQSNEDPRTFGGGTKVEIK = 0.005

Note to self: EC50 (read off the curve) recorded for IgG1-CD134-RG7888 (antibody, INN chains, looked up, V domains shown, IgG1) VH: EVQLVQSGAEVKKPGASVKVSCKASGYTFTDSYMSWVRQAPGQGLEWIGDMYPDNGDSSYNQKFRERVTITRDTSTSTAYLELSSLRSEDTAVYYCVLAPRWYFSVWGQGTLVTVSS VL: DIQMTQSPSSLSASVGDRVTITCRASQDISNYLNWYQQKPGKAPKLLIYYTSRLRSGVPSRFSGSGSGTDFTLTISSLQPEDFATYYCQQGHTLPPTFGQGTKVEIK was 0.02
